# Tested on: OVCAR4
# measurement description: Euclidean distance of Cell Painting phenotypic profile (signed KS, 77 features) to DMSO centroid (dimensionless distance); 5 or 10 uM (library dependent); higher = stronger phenotypic change vs DMSO (phenoactivity)
# stated conditions: 48 h
value type: Euclidean distance
One number for each entry.

CC(C(=O)O)c1ccc2c(c1)CC(=O)c1ccccc1S2 (centres undefined) : 1.24
COc1ccc(Cl)cc1C(=O)NCCc1ccc(S(=O)(=O)NC(=O)NC2CCCCC2)cc1 [Glyburide] : 1.32
CCOC(=O)[C@H](CCc1ccccc1)N[C@H]1CCCN2CCC[C@@H](C(=O)O)N2C1=O [Cilazapril Monohydrate] : 1.38

Proceed to the following item.
QUERY: Name the reported Euclidean distance value associated with the compound CCOC(=O)C1=C[C@]2(CC)CCCN3CCc4c(n1c1ccccc41)[C@@H]32
RESULT: 1.81

----------
Task for the reader: assign each of the following molecules its reported Euclidean distance.
# System: A549
# measurement description: Euclidean distance of Cell Painting phenotypic profile (signed KS, 77 features) to DMSO centroid (dimensionless distance); 5 or 10 uM (library dependent); higher = stronger phenotypic change vs DMSO (phenoactivity)
# stated conditions: 48 h
Numbers only.

Cc1ccccc1OCC(O)CO (centres undefined) : 0.804

Could I get Euclidean distance for every one of these entries?
1. Oc1cc(O)c(Cl)cn1
2. Cc1nn(-c2ccccc2)c(C)c1C=NN1CCN(Cc2ccccc2)CC1
3. Cc1ncc([N+](=O)[O-])n1C

RESULT:
1.07
1.25
0.82

Give Euclidean distance for all molecules that follow.
1. COc1cc([C@@H]2c3cc4c(cc3[C@@H](O[C@@H]3O[C@@H]5CO[C@@H](C)O[C@H]5[C@H](O)[C@H]3O)[C@H]3COC(=O)[C@H]23)OCO4)cc(OC)c1O [Etoposide]
2. CCCCCCCCCCC[C@@H](C[C@@H]1OC(=O)[C@H]1CCCCCC)OC(=O)[C@H](CC(C)C)NC=O
3. O=C([O-])c1ccccc1O.[Na+] [Sodium salicylate]
4. COc1cc2ncnc(Oc3cccc(NC(=O)Nc4cc(C(C)(C)C(F)(F)F)on4)c3)c2cc1OC
5. O=C(O)Cc1ccccc1Nc1c(Cl)cccc1Cl [Diclofenac acid]

RESULT:
2.57
1.11
0.529
2.41
0.349

----------
# System: HEPG2
# measurement description: Euclidean distance of Cell Painting phenotypic profile (signed KS, 77 features) to DMSO centroid (dimensionless distance); 5 or 10 uM (library dependent); higher = stronger phenotypic change vs DMSO (phenoactivity)
# stated conditions: 48 h
Where a name gives a salt, the structure may show the parent alone.
So basically: Euclidean distance at 2 or higher? That is Met. Lower than 2? That is Not met.

QUERY: Quick check: does CC1(C)O[C@@H]2C[C@H]3[C@@H]4CCC5=CC(=O)CC[C@]5(C)[C@@]4(F)[C@@H](O)C[C@]3(C)[C@]2(C(=O)CCl)O1 [Halcinonide] have Euclidean distance greater than or equal to 2?
RESULT: Not met

QUERY: Could you do the same for C=C(C)[C@@H]1CC[C@]2(C(=O)O)CC[C@]3(C)[C@H](CC[C@@H]4[C@@]5(C)CC[C@H](O)C(C)(C)[C@@H]5CC[C@]43C)[C@@H]12 , please?
RESULT: Not met

QUERY: Would you mind doing COC(=O)[C@@H]1[C@H]2C[C@H]3c4[nH]c5ccccc5c4CCN3C[C@@H]2CC[C@@H]1O [Yohimbine HCl] as well?
RESULT: Not met

QUERY: Now give it for O=P(O)(O)C(O)(Cn1ccnc1)P(=O)(O)O too.
RESULT: Met

QUERY: Another molecule to check: C[C@H](Cn1cnc2c(N)ncnc21)OCP(=O)(O)O
RESULT: Not met
